System: IL-6
experimental-details: Cytokine production induced by sample formulations: IL-6
Assay type: in vivo
condition-info: Table 4; mice, i.v., 0.5 mpk, 6 hours; in pg/mL (unit assumed)
Measured IL-6 of individual entries
Answer as a number with no unit attached.

Use these answered entries as a reference point.
1) CCCCC/C=C\C/C=C\CCCCCCCCN(CCCCCCCC/C=C\C/C=C\CCCCC)CCN1CCN(CCN(CCCCCCCCCCCC)CCN(CCCCCCCCCCCC)CCCCCCCCCCCC)CC1; 108
2) CCCCCCCCCCCCCCN(CCCCCCCCCCCCCC)CCN(CCCCCCCCCCCCCC)CCN1CCN(CCN(CCCCCCCCCCCC)CCCCCCCCCCCC)CC1; 188

In the following, a different compound is considered.
Using the record for CCCCCCCCCCCCN(CCCCCCCCCCCC)CCN(CCCCCCCCCCCC)CCN1CCN(CCN(CCCCCC)CCCCCC)CC1 , report its IL-6.
48
